B1: C8orf76 (parent)
chain: YCAKLCEPQWFYEETESSDDVEVL

# Variants of: B1
# experiment_description: protein stability index of a GFP-peptide fusion (GPS, HEK-293T) (PSI 1-6); higher = more stable;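 also: lentivirally expressed fusions sorted by FACS into six bins by GFP to DsRed ratio, PSI derived from sequencing read proportions per bin multiplied by bin number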
# measurement_context: c terminus: a fixed tail appended
Recorded protein stability index by entry
Form: value (number only, do not type unit).

Exam item: // fetch protein stability index given entry "L24F"
Marked response: 2.43

Exam item: // fetch protein stability index given entry "F11S"
Marked response: 3.54
